Target: Epidermal growth factor receptor (Homo sapiens)
Sequence (P00533 whole entry): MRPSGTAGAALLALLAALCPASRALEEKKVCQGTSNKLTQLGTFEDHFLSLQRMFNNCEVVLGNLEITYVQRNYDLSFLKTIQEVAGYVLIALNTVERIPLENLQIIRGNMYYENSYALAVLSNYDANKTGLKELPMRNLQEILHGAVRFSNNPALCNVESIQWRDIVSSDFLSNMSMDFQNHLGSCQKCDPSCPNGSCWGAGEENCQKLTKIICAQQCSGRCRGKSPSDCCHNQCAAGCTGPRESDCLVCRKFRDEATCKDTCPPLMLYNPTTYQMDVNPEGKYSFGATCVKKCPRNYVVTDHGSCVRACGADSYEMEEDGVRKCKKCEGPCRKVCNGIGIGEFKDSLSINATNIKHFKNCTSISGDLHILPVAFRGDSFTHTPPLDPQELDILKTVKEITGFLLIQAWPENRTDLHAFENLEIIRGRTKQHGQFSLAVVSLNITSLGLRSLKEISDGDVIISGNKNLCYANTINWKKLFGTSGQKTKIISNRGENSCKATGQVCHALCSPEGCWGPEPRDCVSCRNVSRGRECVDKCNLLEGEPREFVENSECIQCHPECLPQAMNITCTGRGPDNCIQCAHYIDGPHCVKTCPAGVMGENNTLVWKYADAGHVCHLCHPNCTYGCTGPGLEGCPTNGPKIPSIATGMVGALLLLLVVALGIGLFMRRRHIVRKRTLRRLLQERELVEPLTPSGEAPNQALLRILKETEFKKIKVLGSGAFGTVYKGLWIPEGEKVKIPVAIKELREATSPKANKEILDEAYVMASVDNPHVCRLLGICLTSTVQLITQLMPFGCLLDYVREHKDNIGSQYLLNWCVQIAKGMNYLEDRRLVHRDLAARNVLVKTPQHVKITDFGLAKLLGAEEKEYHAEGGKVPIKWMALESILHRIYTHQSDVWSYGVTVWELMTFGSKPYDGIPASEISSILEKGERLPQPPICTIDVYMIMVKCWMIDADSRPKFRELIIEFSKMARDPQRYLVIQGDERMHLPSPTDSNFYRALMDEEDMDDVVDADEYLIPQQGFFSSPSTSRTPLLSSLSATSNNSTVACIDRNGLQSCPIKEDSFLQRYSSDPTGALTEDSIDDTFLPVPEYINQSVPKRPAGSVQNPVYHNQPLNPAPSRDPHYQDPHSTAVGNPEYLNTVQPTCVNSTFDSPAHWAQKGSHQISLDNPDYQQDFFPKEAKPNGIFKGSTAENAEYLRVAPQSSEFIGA
Assay: Inhibition of human EGFR using poly[Glu:Tyr] (4:1) as substrate in presence of [gamma33P]ATP by radiometric HotSpot assay
Please provide measured pIC50 for the entries that follow.
pIC50 here: minus log base 10 of the concentration, concentration in moles per litre.

Query :: Given the entry C[C@@H](Nc1ncnc2[nH]c(-c3ccc(C(N)=O)cc3)cc12)c1ccccc1 , report its measured pIC50.
Result :: 9.10

Query :: Fill blank: measured pIC50 of the molecule CN(C)CCNCc1ccc(-c2cc3c(N[C@H](CO)c4ccccc4)ncnc3[nH]2)cc1 is ____.
Result :: 9.52

Query :: What measured pIC50 goes with COc1ccccc1-c1cc2c(N[C@H](CO)c3ccccc3)ncnc2[nH]1 ?
Result :: 9.40

Query :: Returns the measured pIC50 for the input molecule. Input: COc1cc(CNCCS(C)(=O)=O)ccc1-c1cc2c(N[C@H](CO)c3ccccc3)ncnc2[nH]1
Result :: 9.40

Query :: For the molecule COc1cc(CNCCN(C)C)ccc1-c1cc2c(N[C@H](C)c3ccccc3)ncnc2[nH]1 , what pIC50 is on record?
Result :: 10.00

Query :: // query pIC50 value for entry COc1cc(C(N)=O)ccc1-c1cc2c(N[C@H](C)c3ccccc3)ncnc2[nH]1
Result :: 9.40

Query :: Any idea what its pIC50 is? The molecule is C[C@@H](Nc1ncnc2[nH]c(-c3ccc(S(N)(=O)=O)cc3)cc12)c1ccccc1
Result :: 9.15

Query :: // lookup pIC50 for COc1cc(NS(C)(=O)=O)ccc1-c1cc2c(N[C@H](C)c3ccccc3)ncnc2[nH]1
Result :: 9.15

Query :: Using the record for COc1cccc(OC)c1-c1cc2c(N[C@H](C)c3ccccc3)ncnc2[nH]1 , report its pIC50.
Result :: 9.22
